STUDY TARGET: VEGF/GAG (glycosaminoglycan) binding (purified VEGF165, [125I]heparin-16-mer) (Homo sapiens, UniProt P15692)
Sequence (P15692 27-191 isoform P15692-4): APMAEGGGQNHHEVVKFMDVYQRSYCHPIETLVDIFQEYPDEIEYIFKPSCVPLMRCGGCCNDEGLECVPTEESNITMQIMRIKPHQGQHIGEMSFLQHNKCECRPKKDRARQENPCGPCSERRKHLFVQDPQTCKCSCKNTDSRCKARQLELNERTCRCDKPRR
ASSAY OVERVIEW: VEGF/GAG (glycosaminoglycan) binding inhibition, [125I]heparin-16-mer filter plate assay
PARTICULARS: activity data for representative compounds of formula I; in vitro VEGF165 / [125I]heparin-16-mer binding, 60 minutes at room temperature
pIC50: −log10 of the molar value.
PARAMETER: pIC50

Cc1oc(-c2ccccc2)nc1Cc1cc2cc(CC(OCCCO)C(=O)O)ccc2o1 (stereo not drawn); 4.85
C=CCOC(Cc1ccc2oc(Cc3nc(-c4ccccc4)oc3C)cc2c1)C(=O)O (stereo not drawn); 4.89
Cc1oc(-c2ccccc2)nc1Cc1cc2cc(CCC(=O)O)ccc2o1; 5.17
Cc1oc(-c2ccccc2)nc1Cc1cc2cc(CC(SCc3ccccc3)C(=O)O)ccc2o1 (stereo not drawn); 5.59
CSC(Cc1ccc(OCCc2nc(-c3ccccc3)oc2C)cc1)C(=O)O (stereo not drawn); 5.35

I = CSC(Cc1ccc2oc(Cc3nc(-c4cccc(C)c4)oc3C)cc2c1)C(=O)O (stereo not drawn)
II = CCCSC(Cc1ccc2oc(Cc3nc(-c4ccccc4)oc3C)cc2c1)C(=O)O (stereo not drawn)
III = CCCCCCCCSC(Cc1ccc2oc(Cc3nc(-c4ccccc4)oc3C)cc2c1)C(=O)O (stereo not drawn)
Please list these compounds in decreasing order of pIC50. Give me the labels in the order the question wants.
III, II, I
